Value source: paper PMC4924691

# Test system: MD-MBA-468
# Cond: read-out: IC50 (MTT), MD-MBA-468; human breast carcinoma, p53 mut, 72 h
# Description: The cytotoxicity of 1 towards ten cancers cell lines with different p53 statuses (wt, mut or null) was subsequently examined assessed using the MTT assay (Supplementary Table S2). Inhibition of cell growth was measured using the MTT reagent (3-(4, 5-dimethylthiazol-2-yl)-2, 5-diphenyltetrazolium bromide). […] The absorbance of each well was read on a SpectraMax M5 microplate reader (Molecular Devices) at the wavelength of 570 nm.
pIC50: −log10 of the molar value.
Measured quantity: pIC50

smiles_entry=CCc1ccc2[c](c1)[Ir-3]13([c]4cc(CC)ccc4-c4cccc[n+]41)([n+]1ccccc1-2)[n+]1ccc(Cl)c2ccc4c(Cl)cc[n+]3c4c21.F[P-](F)(F)(F)(F)F reported_value=5.72
